# Cadmium (Cd) Adsorption amount per entry
- assay.details: Heavy metal removal ability test in contaminated soil (ICP-MS), cadmium
- test.settings: content 2.0% aqueous solution; contaminated soil

{"compound": "O=C(O)c1ccc(N2CCCN(c3ccc(C(=O)O)o3)CCN(c3ccc(C(=O)O)o3)CCCN(c3ccc(C(=O)O)o3)CC2)o1", "Cadmium (Cd) Adsorption amount [ppm]": 72}
{"compound": "NCCNCCNCCN [Trientine, Triethylenetetramine, reference compound]", "Cadmium (Cd) Adsorption amount [ppm]": 79}
{"compound": "O=C(O)c1ccc(N2CCN(c3ccc(C(=O)O)o3)CCN(c3ccc(C(=O)O)o3)CCN(c3ccc(C(=O)O)o3)CC2)o1", "Cadmium (Cd) Adsorption amount [ppm]": 71}
{"compound": "O=C(O)CN1CCN(CC(=O)O)CCN(CC(=O)O)CCN(CC(=O)O)CC1", "Cadmium (Cd) Adsorption amount [ppm]": 74}

Data origin: patent US20210207064A1
